tested on: Saccharomyces cerevisiae; test: protein stability index of tFT-peptide fusion (C-terminal peptide) (PSI (0-1 scale)); higher = more stable (slower turnover); conditions: genetic background: wild type; temperature: 30 C

| sequence data | protein stability index |
| --- | --- |
| LLPRPSLDPSPP | 0.682 |
| WLRSLLKENLVR | 0.542 |
| VGVIREGKENGN | 0.656 |
| FFVFYICSCFLV | 0.4 |
| YSLQLSTVCCRL | 0.614 |
| KSPIPMRAPGNS | 0.633 |
| NESSYGNEKNLG | 0.723 |
| FRGGLLSLSAWV | 0.699 |
| IYNIIFKYRTIT | 0.127 |
| SCFTSLLGRRDG | 0.784 |
| FLFLFGCSPFFG | 0.727 |
| VSKLTRHLWANQ | 0.61 |
| AGSCVRLGGPEW | 0.745 |
| IKKKKRKKIKAN | 0.244 |
| TPLPSLPRPSAP | 0.736 |
| AVSRSLTGVRFL | 0.697 |
| TACPPSTPSTAF | 0.689 |
| LFLRPSGLPTLL | 0.69 |
| PHLRPPPPPPPQ | 0.689 |
| RVDAWLEGKTVR | 0.734 |
| RPRYITQGLPLL | 0.738 |
| EEREKKWKGKGK | 0.718 |
| PPLPAPPPLRPP | 0.606 |
| SWVVSLGFAIGL | 0.693 |
| PCLPCVDRGMRG | 0.666 |
| CMWDAVGFALRS | 0.72 |
| KKQKKEKKKSHK | 0.757 |
| EYGQTDENKMRM | 0.687 |
| DHKKNKIKKKKE | 0.685 |
| PPHLPPPPSPSV | 0.673 |
| VAESCVIVFWLG | 0.506 |
| GLSSAVSPSFGR | 0.598 |
| TGRGVFCMSIHM | 0.643 |
| VFPLSLLLTSFL | 0.591 |
| SPPLLPPPSLPP | 0.628 |
| PVWLLASSLADL | 0.722 |
| DVGGRGAGGGSA | 0.672 |
| VPPPLPSPPSHP | 0.761 |
| YTDVWLPARGSG | 0.689 |
| FYRPGNVLDGVF | 0.705 |
| LCTALLRSLTVG | 0.744 |

###

system: Saccharomyces cerevisiae; test: protein stability index of tFT-peptide fusion in deletion strain of DOA10 (PSI (0-1 scale)); higher = more stable (slower turnover)

| sequence data | protein stability index |
| --- | --- |
| RSLRVLLPLYFRK | 0.593 |
| GLVMCSVGCWFR | 0.45 |
| RVTRLPAIYFRI | 0.636 |
| AITLPMHPLLLR | 0.643 |
| RVTRLEAIYFRI | 0.62 |
| AITLPMCPALLR | 0.672 |
| CLVSKPILLFFR | 0.627 |
| CLVSLPILLFFK | 0.577 |
| ATTLPMCPLLLR | 0.673 |
| CLVSQPILLFFR | 0.628 |
| WLVSLPILLFFR | 0.518 |
| RVRRLDAIYFRI | 0.641 |
| RSLRVNLPLYFR | 0.672 |
| AIRLPMCPLLLR | 0.649 |
| CLVMLPILLFFR | 0.426 |
| CLVSLPILLFNR | 0.588 |
| GLYMCSVGCPFR | 0.677 |
| RVTRLDAIYFRA | 0.697 |
| CLVSLPILLFFC | 0.249 |
| RSLRVLLPLYFRL | 0.496 |
| GLYMCSSGCWFR | 0.679 |
| RSLRVLLPLFFR | 0.681 |
| GLYMESVGCWFR | 0.703 |
| AITLPMCPLLLC | 0.184 |
| AISLPMCPLLLR | 0.655 |
| CLVSLNILLFFR | 0.323 |
| CLVSLCILLFFR | 0.334 |
| RVHRLDAIYFRI | 0.659 |
| RSLRVLLPLYFA | 0.413 |
| GLYMCSGGCWFR | 0.687 |
| RSLRVLLPLMFR | 0.654 |
| GLYMCSVGCWFRD | 0.649 |
| RVTRLDARYFRI | 0.718 |
| GLYGCSVGCWFR | 0.683 |
| RVTRLDAILFRI | 0.705 |
| RSLRVLLPLYER | 0.658 |
| RSLRVLLPQYFR | 0.689 |
| GLYMCMVGCWFR | 0.462 |
| RVNRLDAIYFRI | 0.659 |
| CLVSLPIELFFR | 0.656 |
| RVTRLDACYFRI | 0.707 |
| RITLPMCPLLLR | 0.651 |

Values from the supplement of paper PMC10724198
